Molecular target: cAMP-dependent protein kinase catalytic subunit alpha (Bos taurus) (UniProt P00517)
Test: Binding constant for protein kinase AB3 (3 PKB amino acid substitutions)
experimental-readout: Kd (µM)

Exercise: # input molecule: CC1(C)CCCN(c2ccc(O)c(C(=O)c3ccc(C(=O)N[C@@H]4CCCNC[C@H]4NC(=O)c4ccncc4)cc3)c2)C1.Cl.Cl.Cl ; wanted: its Kd
Solution: 0.077

A: Cl.Cl.Cl.O=C(N[C@@H]1CCCNC[C@H]1NC(=O)c1ccncc1)c1ccc(C(=O)c2cc(N3CCCCC3)ccc2O)cc1
B: CC1(C)CCCNC1c1ccc(O)c(C(=O)c2ccc(C(=O)N[C@@H]3CCCNC[C@H]3NC(=O)c3ccncc3)cc2)c1F.Cl.Cl.Cl (some centres undefined)
C: CN(C)c1ccc(O)c(C(=O)c2ccc(C(=O)N[C@@H]3CCCNC[C@H]3NC(=O)c3ccncc3)cc2)c1.Cl.Cl.Cl
Exercise: Give the ascending ranking of the items by reported Kd. Write the labels out in the order the request specifies.
Solution: C, A, B
(C: 0.041 µM, A: 0.193 µM, B: 3.77 µM)

---

Experiment: Inhibition protein kinase A
experimental-readout: IC50 (µM)

Exercise: # input compound: Cl.Cl.Cl.O=C(N[C@@H]1CCCNC[C@H]1NC(=O)c1ccncc1)c1ccc(C(=O)c2cc(N3CCCCC3)ccc2O)cc1 ; wanted: its IC50
Solution: 0.4

a: CC1(C)CCCNC1c1ccc(O)c(C(=O)c2ccc(C(=O)N[C@@H]3CCCNC[C@H]3NC(=O)c3ccncc3)cc2)c1F.Cl.Cl.Cl (some centres undefined)
b: CN(C)c1ccc(O)c(C(=O)c2ccc(C(=O)N[C@@H]3CCCNC[C@H]3NC(=O)c3ccncc3)cc2)c1.Cl.Cl.Cl
Exercise: Among a and b , which shows a numerically higher IC50 result? Please indicate the selected item by its label.
Solution: a
(a: 2.4 µM, b: 0.03 µM)

---

Assay: Inhibition of protein kinase AB (PKB amino acid substitutions)
Type: protein assay
experimental-readout: IC50 (µM)

Consider the following illustrative entries.
Exercise: # input molecule: CC1(C)CCN(c2ccc(O)c(C(=O)c3ccc(C(=O)N[C@@H]4CCCNC[C@H]4NC(=O)c4ccncc4)cc3)c2)CC1.Cl.Cl.Cl ; wanted: its IC50
Solution: 0.04

Exercise: # input molecule: CN(C)c1ccc(O)c(C(=O)c2ccc(C(=O)N[C@@H]3CCCNC[C@H]3NC(=O)c3ccncc3)cc2)c1.Cl.Cl.Cl ; wanted: its IC50
Solution: 0.023

Exercise: # input molecule: Cl.Cl.Cl.O=C(N[C@@H]1CCCNC[C@H]1NC(=O)c1ccncc1)c1ccc(C(=O)c2cc(N3CCCCC3)ccc2O)cc1 ; wanted: its IC50
Solution: 0.02

1: CC1(C)CCCN(c2ccc(O)c(C(=O)c3ccc(C(=O)N[C@@H]4CCCNC[C@H]4NC(=O)c4ccncc4)cc3)c2)C1.Cl.Cl.Cl
2: CC1(C)CCCNC1c1ccc(O)c(C(=O)c2ccc(C(=O)N[C@@H]3CCCNC[C@H]3NC(=O)c3ccncc3)cc2)c1F.Cl.Cl.Cl (stereo not given in full)
Exercise: Smaller IC50 value? Options are 1 and 2 Please indicate the selected item by its label.
Solution: 1
